- METHOD DESCRIPTION: yeast display, Sf9 membrane polyspecificity reagent, FACS + sequencing; frameworks hold sequencing errors

{"columns": ["CONSTRUCT SEQUENCE", "polyreactivity (PSR sort gate)"],
 "data": [
  ["QVQLVESGGGLVQAGRSLRLSCAASGRTFDEYAMGWYRQAPGKERELVAAISARGGRTYYADSVKGRFTISRDNAKNTVYLQMNSLKPEDTAVYYCAAAGYITRYDRYDYWGQGTQVTVSS", "high polyreactivity"],
  ["QVQLVESGGGLVQAGGSLRLSCAASGSTLTRNAMGLYRQAPGTERELVATITATGGSTYYADSVKGRFTISRDNAKYTVYLQMNSLKTEDTAVYYCAAAYPTYRHYYWGQGTQVTVSS", "low polyreactivity"],
  ["QVQLVESGGGLVQAGGSLRLSCAASGRTFWYYAMGWYRQAPGKERELVADITRRGGGTYYADSVKGRFTISRDNAKNTVYLQMNSLKPEDTAVYYCAVERWPRSYPPSYDYWGQGTQVTVSS", "high polyreactivity"],
  ["QVQLVESGGGLVQAGGSLRLSCAASGSIVVHNAMGWYRQAPGKERELVAAITWSGGSTYYADSVKGRFTISRDNAKNTVYLQMNSLKPVDTAVYYCAAEDVAAQWAYESPTSYWYYYWGQGTQVTVSS", "low polyreactivity"],
  ["QVQLVESGGRLVQAGGSLRLSCAASGSTFNRYAMGWYRQAPGKERELVAAISRGGSTTYADSVKGRFTISRDNAKHTVYLQMYSLKPEDTAVYYCAALYYSPRYWYDYWGLGTQVTVSS", "high polyreactivity"],
  ["QVQLVESGGGLVQAGGSLRLSCAASGRILYPYAMGWYRQAPGKERELVAAITFIGGTTYYADSVKGRFTLSRDNAKNTLYLQRNSLKQEDTAVYYCSTAGPYGSRNDYWGQGTQVTVSS", "high polyreactivity"],
  ["QVQLVESGGGLVQAGGSLRLSCAASGRTFWSYAMGWYRQAPGKERELVATINDSDGSTYADSVKGRFTISRDNAKNTVYLQMNSLKPEDTAVYYCNAQTRAGYYFGYGYWGQGTQVTVSS", "low polyreactivity"],
  ["QVQLVESGGGLAQAGGSLRLSCAASGLIFYYNAMGWYRQAPGKERELVAAISSSGGRTYYADSVKGRFTISRDNAKNTVYLQMNSLKPEDTAVYYCAATSYGYGSRYDYWGQGTQVTVSS", "high polyreactivity"],
  ["QVQLVESGGGLVQAGGSLRLSCAASGFIFAGYAMGWYRQAPGKERELVAAISSGGGSTYYADSVKGRFTISRDNAKNTVYLQMNSLKPEDTAVYYCAARRLYPPGYYYWGQGTQVTVSS", "high polyreactivity"],
  ["QVQLVESGGGLVQAGGSLRLTCAASGFTLGLNAMGWYRQAPGKEREVVAAIRRSAGSTYYADSVKGRFTISRDNAKNTVYLQMNSLKPEDTAVYYCAAGFLWAKYAYGHWGQGTQVTVSS", "low polyreactivity"],
  ["QVQLVESGGGLVQAGGSLRLSCAASGRIFEKYAMGWYRQAPGKERELVAAISYSGGSTYYADSVKGRFTISRDNAKNTVYLQMNSLKPEDTAVYYCARYSRTQAYDYWGQGTQVTVSS", "high polyreactivity"]
]}
